B1: CCDC70 (parent)
chain: FSFKVSRWMGLACFRSLAASSPSI

Variants of: B1
Assay: protein stability index of a GFP-peptide fusion (GPS, HEK-293T) (PSI 1-6); higher = more stable;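 further: lentivirally expressed fusions sorted by FACS into six bins by GFP to DsRed ratio, PSI derived from sequencing read proportions per bin multiplied by bin number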
Details: c terminus: a fixed tail appended
Reported protein stability index values are given for each entry in this list.
measured_attribute: protein stability index

1) S2M = 2.1
2) F14M = 2.21
3) S2V = 1.84
4) A12D = 2.87
5) V5H = 2
6) S6F = 1.69
7) M9I = 4.43
8) F1A = 2.36
9) R7D = 2.9
10) F1G = 2.57
11) W8S = 2.08
12) F1W = 2.34
13) A12E = 2.75
14) S23V = 2.53
15) R15A = 3.76
16) S20A = 3.7
17) G10D = 3.79
18) S6Q = 3.43
19) V5F = 2.74
20) P22N = 3.22
21) I24C = 1.94
22) S2G = 1.56

// provenance: the supplement of paper PMC10567573
